Each recorded value in this set is attributed to patent US10670605B2.

Below, each of the molecules is paired with its reported isoTOP-ABPP reactivity ratio, P00813_C75 value.
Target: ADA C75 (P00813) (Homo sapiens)
Sequence (P00813 whole entry): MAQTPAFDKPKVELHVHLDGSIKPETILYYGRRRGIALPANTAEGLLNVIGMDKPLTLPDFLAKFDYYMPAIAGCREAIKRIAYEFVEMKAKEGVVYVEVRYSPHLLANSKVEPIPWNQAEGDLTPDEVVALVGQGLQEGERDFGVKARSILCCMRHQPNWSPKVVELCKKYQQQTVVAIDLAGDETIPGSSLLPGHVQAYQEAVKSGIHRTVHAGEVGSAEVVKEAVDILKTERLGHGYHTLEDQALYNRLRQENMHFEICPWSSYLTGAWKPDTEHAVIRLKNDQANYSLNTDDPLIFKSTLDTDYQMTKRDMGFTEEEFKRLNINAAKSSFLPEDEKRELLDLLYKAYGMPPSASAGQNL
Test: Competitive isoTOP-ABPP, cell lysates
Assay type: binding
Settings: 500 μm, in-vitro_ramos

{"columns": ["MOL", "isoTOP-ABPP reactivity ratio, P00813_C75"],
 "data": [
  ["Cc1ccc(C=C(C#N)C(=O)NCCN2CCOCC2)cc1", 1.1],
  ["C=CC(=O)Nc1cc(F)c(N2CCN(C(=O)OC(C)(C)C)CC2)c(F)c1", 2.3],
  ["C=CC(=O)N(Cc1cccnc1)c1cc(C(F)(F)F)cc(C(F)(F)F)c1", 0.8],
  ["O=C(CCl)N(Cc1ccc(F)cc1)C12CC3CC(CC(C3)C1)C2", 1.1],
  ["CCN(CC)c1ccc(S(N)(=O)=O)cc1NC(=O)CCl", 3.1],
  ["C=CC(=O)Nc1cc(C)c(Br)cc1C", 0.9],
  ["CC(C)(C)c1cc(NC(=O)CCl)on1", 1.7],
  ["C=CC(=O)N1CCC(c2noc3ccc(F)cc23)CC1", 0.9],
  ["O=C(CCl)Nc1ccccc1C1CCCCCC1", 1.1]
]}

====

Target: USP16 C205 (Q9Y5T5) (Homo sapiens, UniProt Q9Y5T5)
Sequence (Q9Y5T5 whole entry): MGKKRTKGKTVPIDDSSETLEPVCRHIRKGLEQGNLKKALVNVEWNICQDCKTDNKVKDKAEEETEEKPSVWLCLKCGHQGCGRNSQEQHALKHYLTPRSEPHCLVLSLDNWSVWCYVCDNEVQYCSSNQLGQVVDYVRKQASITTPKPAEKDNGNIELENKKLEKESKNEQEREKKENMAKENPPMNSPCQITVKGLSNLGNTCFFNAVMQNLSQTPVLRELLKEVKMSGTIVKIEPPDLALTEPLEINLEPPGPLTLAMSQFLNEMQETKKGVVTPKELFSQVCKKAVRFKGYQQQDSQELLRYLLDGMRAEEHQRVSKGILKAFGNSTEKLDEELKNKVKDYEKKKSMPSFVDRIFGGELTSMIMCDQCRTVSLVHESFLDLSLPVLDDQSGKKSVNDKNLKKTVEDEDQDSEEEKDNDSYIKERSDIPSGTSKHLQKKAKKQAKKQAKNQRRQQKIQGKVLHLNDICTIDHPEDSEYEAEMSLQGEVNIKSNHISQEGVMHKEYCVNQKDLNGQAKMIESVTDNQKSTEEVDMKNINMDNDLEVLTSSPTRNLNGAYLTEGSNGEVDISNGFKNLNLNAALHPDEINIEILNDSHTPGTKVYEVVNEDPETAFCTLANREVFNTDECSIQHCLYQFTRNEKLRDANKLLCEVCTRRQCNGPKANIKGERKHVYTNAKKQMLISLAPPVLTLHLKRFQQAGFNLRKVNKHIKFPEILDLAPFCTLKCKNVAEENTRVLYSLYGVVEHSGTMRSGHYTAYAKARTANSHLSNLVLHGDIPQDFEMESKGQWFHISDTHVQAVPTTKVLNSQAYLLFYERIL
Assay: Competitive isoTOP-ABPP, cell lysates
Type: binding
Details: 500 μm in-vitro ramos
MEASURE_NAME: isoTOP-ABPP ratio (reactivity profile), Q9Y5T5_C205

{"columns": ["MOL", "NUMERIC_RESULT"],
 "data": [
  ["COc1ccccc1OCCNC(=O)CCl", 1.6],
  ["N#C/C(=C\\c1cc(C(F)(F)F)cc(C(F)(F)F)c1)C(N)=O", 1.2],
  ["O=C(CCl)N1CCOCC1", 1.6],
  ["CC(C)CCOCCNC(=O)CCl", 0.9]
]}

====

Target: MLTK (ZAK) C22 (Homo sapiens)
Construct: expressed in transfected cells
Sequence (Q9NYL2 whole entry): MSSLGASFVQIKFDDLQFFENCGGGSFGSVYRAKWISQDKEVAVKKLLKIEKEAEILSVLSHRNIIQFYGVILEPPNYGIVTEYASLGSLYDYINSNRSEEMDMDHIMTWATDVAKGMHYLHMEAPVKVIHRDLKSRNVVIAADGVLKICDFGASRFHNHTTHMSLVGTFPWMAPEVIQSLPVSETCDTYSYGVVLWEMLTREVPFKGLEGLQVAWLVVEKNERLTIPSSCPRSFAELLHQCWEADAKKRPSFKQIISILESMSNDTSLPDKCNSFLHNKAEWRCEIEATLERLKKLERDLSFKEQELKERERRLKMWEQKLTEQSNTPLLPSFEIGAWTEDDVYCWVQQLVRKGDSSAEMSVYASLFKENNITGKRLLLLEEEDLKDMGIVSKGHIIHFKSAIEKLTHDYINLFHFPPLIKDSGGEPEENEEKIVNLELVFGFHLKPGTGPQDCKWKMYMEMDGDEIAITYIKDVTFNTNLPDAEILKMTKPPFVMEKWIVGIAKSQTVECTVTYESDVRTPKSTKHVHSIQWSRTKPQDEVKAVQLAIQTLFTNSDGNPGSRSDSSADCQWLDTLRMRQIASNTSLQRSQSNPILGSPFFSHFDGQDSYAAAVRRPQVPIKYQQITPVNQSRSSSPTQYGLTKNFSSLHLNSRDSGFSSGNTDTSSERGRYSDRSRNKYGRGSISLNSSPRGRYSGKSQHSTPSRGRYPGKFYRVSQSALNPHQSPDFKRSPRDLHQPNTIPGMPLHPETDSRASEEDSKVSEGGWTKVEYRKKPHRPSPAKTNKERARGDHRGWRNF
Test: Blockade of ibrutinib-derived probe 59 labeling of MLTK (gel-based ABPP)
Format: binding
Details: read-out: IC50 for blockade of ibrutinib probe 59 labeling of MLTK; recombinant MLTK in HEK293T lysate
pIC50: −log10 of the molar value.

{"columns": ["MOLECULE", "pIC50"],
 "data": [
  ["O=C(CCl)N1N=C(c2ccco2)CC1c1cc2ccccc2o1 (stereo not shown)", 5.59]
]}

====

Target: UniProt:Q86UV5
Sequence (Q86UV5 whole entry): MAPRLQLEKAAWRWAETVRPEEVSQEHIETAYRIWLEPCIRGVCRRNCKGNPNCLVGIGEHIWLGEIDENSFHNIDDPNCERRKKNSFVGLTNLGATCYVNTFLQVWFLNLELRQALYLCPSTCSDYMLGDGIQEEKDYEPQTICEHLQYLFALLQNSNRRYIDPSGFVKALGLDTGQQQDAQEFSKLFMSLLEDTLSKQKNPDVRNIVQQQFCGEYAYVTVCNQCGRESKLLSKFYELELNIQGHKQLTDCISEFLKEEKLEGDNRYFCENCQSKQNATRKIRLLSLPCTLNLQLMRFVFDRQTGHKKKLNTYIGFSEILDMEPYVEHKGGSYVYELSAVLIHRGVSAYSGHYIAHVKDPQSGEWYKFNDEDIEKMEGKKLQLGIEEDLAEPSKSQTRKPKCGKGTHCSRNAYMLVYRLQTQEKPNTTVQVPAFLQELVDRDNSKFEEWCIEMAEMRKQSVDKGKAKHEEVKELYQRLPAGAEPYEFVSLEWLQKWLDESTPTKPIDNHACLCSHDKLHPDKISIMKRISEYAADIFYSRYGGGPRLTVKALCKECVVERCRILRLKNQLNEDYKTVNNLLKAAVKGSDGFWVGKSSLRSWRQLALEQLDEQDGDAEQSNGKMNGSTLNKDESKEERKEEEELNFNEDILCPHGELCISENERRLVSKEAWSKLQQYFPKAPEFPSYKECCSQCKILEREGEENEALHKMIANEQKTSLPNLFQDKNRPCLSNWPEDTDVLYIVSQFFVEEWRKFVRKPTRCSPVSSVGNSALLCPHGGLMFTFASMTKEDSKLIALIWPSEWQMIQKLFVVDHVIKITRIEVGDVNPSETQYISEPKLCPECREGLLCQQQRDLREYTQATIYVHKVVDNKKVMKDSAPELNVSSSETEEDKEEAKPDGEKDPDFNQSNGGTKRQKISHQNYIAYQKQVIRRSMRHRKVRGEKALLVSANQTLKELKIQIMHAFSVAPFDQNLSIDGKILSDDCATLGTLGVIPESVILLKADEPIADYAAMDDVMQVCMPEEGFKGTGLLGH
Assay: Competitive isoTOP-ABPP, cell lysates
Assay type: binding
Conditions: 500 μm in-vitro ramos
Where isoTOP-ABPP ratio (reactivity profile), Q86UV5_C39 equals or exceeds 1, the correct label is T; where it does not, the label is F.

{"columns": ["COMPOUND", "CLASS"],
 "data": [
  ["O=C(CCl)NC12CC3CC(CC(C3)C1)C2 [compound 21]", "T"],
  ["C=CC(=O)N(Cc1cccnc1)c1ccc(Oc2ccccc2)c(C(F)(F)F)c1 [compound 15]", "F"],
  ["O=C(CCl)N1CCC(C(O)(c2ccccc2)c2ccccc2)CC1 [compound 20]", "T"],
  ["N#C/C(=C\\c1cc(C(F)(F)F)cc(C(F)(F)F)c1)C(N)=O [compound 23]", "T"]
]}

====

Target: LRBA C2675 (P50851) (Homo sapiens)
Test: Competitive isoTOP-ABPP, cell lysates
Format: binding
Settings: 500 μm in-vitro ramos
Please note: isoTOP-ABPP ratio (reactivity profile), P50851_C2675 exactly at 1 is n. Only values below 1 get y.

{"columns": ["MOLECULE", "CLASS"],
 "data": [
  ["CCN(CC)c1ccc(S(N)(=O)=O)cc1NC(=O)CCl [compound 30]", "y"],
  ["C=CC(=O)N(Cc1cccnc1)c1ccc(Oc2ccccc2)c(C(F)(F)F)c1 [compound 15]", "n"],
  ["N#C/C(=C\\c1cc(C(F)(F)F)cc(C(F)(F)F)c1)C(N)=O [compound 23]", "n"],
  ["O=C(/C=C/c1ccccc1)Nc1cc(C(F)(F)F)cc(C(F)(F)F)c1 [compound 26]", "y"],
  ["O=C(CCl)NC12CC3CC(CC(C3)C1)C2 [compound 21]", "n"],
  ["O=C(CCl)N1CCOCC1 [compound 22]", "n"]
]}
